test system: T1, human EphB3 (Homo sapiens, UniProt P54753)
T1 construct: a protein of the extracellular region of each human Eph receptor fused with the SEAP protein and the His tag; made in house; host or cells: Expi293F cells
T1 sequence (P54753 34-559 limits assumed): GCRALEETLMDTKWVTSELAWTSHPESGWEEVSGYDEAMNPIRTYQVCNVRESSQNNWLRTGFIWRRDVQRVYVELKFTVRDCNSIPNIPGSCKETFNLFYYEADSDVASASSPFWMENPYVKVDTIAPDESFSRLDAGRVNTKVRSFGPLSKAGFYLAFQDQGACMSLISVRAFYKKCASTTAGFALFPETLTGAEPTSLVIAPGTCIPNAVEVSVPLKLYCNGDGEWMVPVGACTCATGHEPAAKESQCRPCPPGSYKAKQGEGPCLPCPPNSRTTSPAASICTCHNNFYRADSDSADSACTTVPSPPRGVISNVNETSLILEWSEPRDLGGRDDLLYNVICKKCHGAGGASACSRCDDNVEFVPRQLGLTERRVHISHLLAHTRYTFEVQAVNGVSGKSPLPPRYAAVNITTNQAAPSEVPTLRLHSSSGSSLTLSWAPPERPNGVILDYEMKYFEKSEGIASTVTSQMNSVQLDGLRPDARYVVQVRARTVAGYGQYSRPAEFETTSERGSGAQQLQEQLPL
measurement notes: Selectivity ELISA of humanized antibodies for human Eph receptor
Type: binding
cond: coated protein 1 nM
measured endpoint: hEphB3-SEAP-: absorbance at 450 nm, percentage with respect to hEphA4-SEAP-His as 100% (%)
Answers are plain numbers, in %.

157 (antibody, V domains shown, synthetic humanized antibody heavy chain variable region sequence; synthetic humanized antibody light chain variable region sequence) VH: QVQLVQSGSELKKPGASVKVSCKASGYTFTDYSMHWVRQAPGQGLEWMGWINTETGEPTYAQGFTGRFVFSLDTSVSTAYLQISSLKAEDTAVYYCARIPLYYYGSRYWYFDVWGQGTTVTVSS VL: DIQMTQSPSSLSASVGDRVTITCRASENIYRNLAWYQQKPGKAPQLLLYAATNLADGVPSRFSGSGSGTDYTLTISSLQPEDFATYYCQHFWGTPWTFGQGTKVEIK: 6.4

For 92 (antibody, V domains shown, constant regions without entry; synthetic humanized antibody light chain variable region sequence; synthetic humanized antibody heavy chain variable region sequence) VL: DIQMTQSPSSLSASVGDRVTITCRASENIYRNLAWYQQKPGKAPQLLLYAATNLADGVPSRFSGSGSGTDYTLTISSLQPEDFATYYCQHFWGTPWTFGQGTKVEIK VH: QIQLVQSGSELKKPGASVKVSCKASGYTFTDYSMHWVRQAPGQGLKWMGWINTETGEPTYADDFKGRFVFSLDTSVSTAYLQISSLKAEDTAVYYCARIPLYYYGSRYWYFDVWGQGTTVTVSS , write its hEphB3-SEAP-: absorbance at 450 nm, percentage with respect to hEphA4-SEAP-His as 100%.
6.9
